- Test details: Urinary excretion in 0 to 6 hours of penicillanic acid 1,1-dioxide in fasting volunteers following oral administration
- Format: in vivo, human
- Experimental parameters: human, in vivo, po, 60 mg, 0 to 6 hours; mean; 60 mg potassium penicillanate 1,1-dioxide oral, aqueous solution; fasting
Measured endpoint: dose excreted at 6 h (%)
Just the number in %, nothing appended.

Input line: Retrieve dose excreted at 6 h measured for CC1(C)[C@H](C(=O)[O-])N2C(=O)C[C@H]2S1(=O)=O.[K+] [potassium penicillanate 1,1-dioxide] and print it.
Output line: 4.3

These entries and their values trace back to patent US4325960A.
